Give measured normalized RNA/DNA level with ligand (log10) for each item. Keep answers brief.
B1: library; a variant is named by its letters at N, in order (parent)
chain: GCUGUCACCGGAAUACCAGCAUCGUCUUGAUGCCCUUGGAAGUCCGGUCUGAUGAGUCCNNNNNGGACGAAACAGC

- Variants of: B1
- assay-method-text: normalized RNA/DNA level with ligand (relative to sTRSVctl = 100) (log10 (% of sTRSVctl)); higher = less ribozyme self-cleavage, higher mRNA level
- assay-context: ligand concentration (+) RNA-Seq: 5 mM, HEK293T, reporter: mCherry (pCS4076), ligand present: yes
When you answer, write just the number.

Prompt: I have this variant here, `UAGAC` , and I need its recorded normalized RNA/DNA level with ligand (log10).
Response: 1.91

Prompt: For the variant shown here, `CAUUC` , give the reported normalized RNA/DNA level with ligand (log10).
Response: 2.07

Prompt: Item `AAGCU` has what recorded normalized RNA/DNA level with ligand (log10)?
Response: 2.05

Prompt: Give the measured normalized RNA/DNA level with ligand (log10) of `AACAU` .
Response: 1.93

Prompt: Which normalized RNA/DNA level with ligand (log10) value belongs to `GUAAU` ?
Response: 1.94

Prompt: // lookup normalized RNA/DNA level with ligand (log10) for `ACUAA`
Response: 2

Prompt: Report normalized RNA/DNA level with ligand (log10) for `UCAAU` please.
Response: 2

Prompt: Form field: reported normalized RNA/DNA level with ligand (log10) of `UCAUG`
Response: 1.9

Prompt: What does the data say about its normalized RNA/DNA level with ligand (log10)? Entry: `GAGAU`
Response: 1.97

Prompt: Which normalized RNA/DNA level with ligand (log10) is listed for `AAACG` ?
Response: 2

Prompt: Requested field: normalized RNA/DNA level with ligand (log10). Item: `GAGUU`
Response: 1.89

Prompt: Which measured normalized RNA/DNA level with ligand (log10) value corresponds to `CCCUA` ?
Response: 2.01

Prompt: So what's the measured normalized RNA/DNA level with ligand (log10) for this one? `CCCCA`
Response: 2.04

Prompt: Record request: normalized RNA/DNA level with ligand (log10) value, item `CCACA`
Response: 1.97

Taken from the supplement of paper PMC6757056.
